molecular target: human active recombinant p38 (p38α) (Homo sapiens, UniProt Q16539); construct: 6His; experiment: p38 Alpha Enzyme Assay (AlphaScreen, biotinylated-ATF2 substrate); format: biochemical; details: means of replicate determinations; pre-incubated for 4 hours at 37° C.; SD of assay between 0.2 and 0.3 log units; read-out: p38α inhibition Mean pIC50 (converted)
Sequence (Q16539 whole entry): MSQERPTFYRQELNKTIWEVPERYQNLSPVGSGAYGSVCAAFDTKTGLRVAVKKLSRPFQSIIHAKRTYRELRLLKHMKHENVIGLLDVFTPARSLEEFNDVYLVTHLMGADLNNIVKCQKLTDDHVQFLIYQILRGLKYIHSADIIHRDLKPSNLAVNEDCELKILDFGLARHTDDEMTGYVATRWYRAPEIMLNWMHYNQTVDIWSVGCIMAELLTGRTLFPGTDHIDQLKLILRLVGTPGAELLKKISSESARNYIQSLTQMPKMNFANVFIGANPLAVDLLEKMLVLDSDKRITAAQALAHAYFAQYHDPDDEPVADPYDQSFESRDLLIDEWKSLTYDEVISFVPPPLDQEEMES
Mark Fulfilled only for IC50 values smaller than 300 pM; exact matches and larger values are Not fulfilled.

Q. Given the entry `Cc1c(F)cc(C(=O)NC2CC2)cc1-c1ccc2c(=O)n(CC3(CO)CC3)cc(CN3CCNCC3)c2c1` , would its reported IC50 be below 300 pM?
A. Not fulfilled

Q. Given the entry `Cc1c(F)cc(C(=O)NC2CC2)cc1-c1ccc2c(=O)n(CC3CC3)cc(SC3CCNCC3)c2c1` , would its reported IC50 be below 300 pM?
A. Fulfilled

Q. Given the entry `Cc1c(F)cc(C(=O)NC2CC2)cc1-c1ccc2c(=O)n(CC(C)(C)CO)cc(S(=O)(=O)N3CCCNCC3)c2c1` , would its reported IC50 be below 300 pM?
A. Fulfilled

New cases:
Q. Given the entry `Cc1c(F)cc(C(=O)NC2CC2)cc1-c1ccc2c(=O)n(CC(C)(C)CO)cc(SC3CCNCC3)c2c1` , would its reported IC50 be below 300 pM?
A. Not fulfilled

Q. Given the entry `Cc1c(F)cc(C(=O)NC2CC2)cc1-c1ccc2c(=O)n(CC(C)(C)CO)cc(CN3CCN(CCCO)CC3)c2c1` , would its reported IC50 be below 300 pM?
A. Not fulfilled

Q. Given the entry `Cc1c(F)cc(C(=O)NC2CC2)cc1-c1ccc2c(=O)n(CC(C)(C)CO)cc(CN3CCNC[C@@H]3C)c2c1` , would its reported IC50 be below 300 pM?
A. Not fulfilled

Q. Given the entry `Cc1c(F)cc(C(=O)NC2CC2)cc1-c1ccc2c(=O)n(CCCO)cc(CN3CCN[C@H](CO)C3)c2c1` , would its reported IC50 be below 300 pM?
A. Fulfilled

Values compiled from patent US8012980B2.
